- Tested on: HIV-1 IIIB strain
- assayProcedure: MT-4 HIV Wild Type Virus Infection Assay (IIIB Virus)
- Assay type: cell-based
- measurementContext: Human immunodeficiency virus 1, IIIB, MT4, 120 h, MT-4 cells acutely infected with HIV-1 IIIB, 5 day incubation, Cell-titer glo
quantity: pEC50
Keep it numeric: pEC50 is minus log10 of the concentration in mol/L.

COC(=O)N[C@H](C(=O)N[C@@H](Cc1ccc(C#Cc2cnc(N3CC4CCC(C3)N4C3COC3)nc2)cc1)[C@H](CN(Cc1c(F)cc(-c2ccn(C(F)F)n2)cc1F)NC(=O)[C@@H](NC(=O)OC)C(C)(C)C(F)(F)F)OC(=O)OCOC(=O)CC(C)(C)c1c(CC(=O)N2CCN(S(C)(=O)=O)CC2)cc(C)cc1OP(=O)(O)O)C(C)(C)C(F)(F)F ... 8.41
COC(=O)N[C@H](C(=O)N[C@@H](Cc1ccc(C#Cc2cnc(N3CC4CCC(C3)N4C3COC3)nc2)cc1)[C@H](CN(Cc1c(F)cc(-c2ccn(C(F)F)n2)cc1F)NC(=O)[C@@H](NC(=O)OC)C(C)(C)C(F)(F)F)OC(=O)CC(C)(C)c1c(CC(=O)N[C@@H](CCC(N)=O)C(=O)O)cc(C)cc1OP(=O)(O)O)C(C)(C)C(F)(F)F ... 7.37
COC(=O)N[C@H](C(=O)N[C@@H](Cc1ccc(C#Cc2ccc(N3CC4CCC(C3)N4C3COC3)nc2)cc1)[C@H](CN(Cc1c(F)cc(-c2ccn(C(F)F)n2)cc1F)NC(=O)[C@@H](NC(=O)OC)C(C)(C)C(F)(F)F)OC(=O)CC(C)(C)c1c(CC(=O)Nc2cccc(C(=O)OO)c2)cc(C)cc1CP(=O)(O)O)C(C)(C)C(F)(F)F ... 6.79

Consider the record given below.
Which value of pEC50 has been reported for COC(=O)N[C@H](C(=O)N[C@@H](Cc1ccc(C#Cc2cnc(N3CC4CCC(C3)N4C3COC3)nc2)cc1)[C@H](CN(Cc1c(F)cc(-c2ccn(C(F)F)n2)cc1F)NC(=O)[C@@H](NC(=O)OC)C(C)(C)C(F)(F)F)OC(=O)CC(C)(C)c1c(CC(=O)N[C@@H](Cc2ccc(C(=O)O)cc2)C(=O)O)cc(C)cc1OP(=O)(O)O)C(C)(C)C(F)(F)F in the records?
6.68

====

- assayProcedure: Intestinal S9 Assay (human GI S9)
- Assay type: in vitro ADME
- measurementContext: human, 1.0 mg/mL S9 protein, TRIS pH 7.4, read-out: Human GI S9 T½
- Experimental: Reagents. Stock solutions of test compounds in dimethyl sulfoxide (DMSO) having a final concentration of 10 mM were prepared and used in all experiments. Sekisui XenoTech (Kansas City, KS) provided pooled intestinal S9 fractions. All other chemicals were purchased from Sigma-Aldrich (St. Louis, MO) or VWR (West Chester, PA). […] Data Analysis. Metabolic stabilities were determined by measuring the rates of disappearance of test compound and positive control substrate. […]
Binarize half-life at 2 μM at 8 h; below is criterion met, at or above is criterion not met.

COC(=O)N[C@H](C(=O)N[C@@H](Cc1ccc(C#Cc2cnc(N3CC4CCC(C3)N4C3COC3)nc2)cc1)[C@H](CN(Cc1c(F)cc(-c2ccn(C(F)F)n2)cc1F)NC(=O)[C@@H](NC(=O)OC)C(C)(C)C(F)(F)F)OC(=O)CC(C)(C)c1c(CC(=O)N2[C@H](C(=O)O)C[C@@H]3CCCC[C@@H]32)cc(C)cc1OP(=O)(O)O)C(C)(C)C(F)(F)F [Example 55] ... criterion not met
COC(=O)N[C@H](C(=O)N[C@@H](Cc1ccc(C#Cc2cnc(N3CC4CCC(C3)N4C3COC3)nc2)cc1)[C@H](CN(Cc1c(F)cc(-c2ccn(C(F)F)n2)cc1F)NC(=O)[C@@H](NC(=O)OC)C(C)(C)C(F)(F)F)OC(=O)CC(C)(C)c1c(CC(=O)NC2(C(=O)O)CCOCC2)cc(C)cc1OP(=O)(O)O)C(C)(C)C(F)(F)F [Example 31] ... criterion not met
COC(=O)N[C@H](C(=O)N[C@@H](Cc1ccc(C#Cc2cnc(N3CC4CCC(C3)N4C3COC3)nc2)cc1)[C@H](CN(Cc1c(F)cc(-c2ccn(C(F)F)n2)cc1F)NC(=O)[C@@H](NC(=O)OC)C(C)(C)C(F)(F)F)OC(=O)CC(C)(C)c1c(CC(=O)NCCS(=O)(=O)O)cc(C)cc1OP(=O)(O)O)C(C)(C)C(F)(F)F [Example 24] ... criterion met
COC(=O)N[C@H](C(=O)N[C@@H](Cc1ccc(C#Cc2cnc(N3CC4CCC(C3)N4C3COC3)nc2)cc1)[C@H](CN(Cc1c(F)cc(-c2ccn(C(F)F)n2)cc1F)NC(=O)[C@@H](NC(=O)OC)C(C)(C)C(F)(F)F)OC(=O)CC(C)(C)c1c(CC(=O)NCC(=O)O)cccc1OP(=O)(O)O)C(C)(C)C(F)(F)F [Example 7] ... criterion met
COC(=O)N[C@H](C(=O)N[C@@H](Cc1ccc(C#Cc2ccc(N3CC4CCC(C3)N4C3COC3)nc2)cc1)[C@H](CN(Cc1c(F)cc(-c2ccn(C(F)F)n2)cc1F)NC(=O)[C@@H](NC(=O)OC)C(C)(C)C(F)(F)F)OC(=O)CC(C)(C)c1c(CC(=O)Nc2cccc(C(=O)OO)c2)cc(C)cc1CP(=O)(O)O)C(C)(C)C(F)(F)F [Example 15] ... criterion not met

# input for lookup
Does this molecule meet the criterion half-life at 2 μM < 8 h? COC(=O)N[C@H](C(=O)N[C@@H](Cc1ccc(C#Cc2cnc(N3CC4CCC(C3)N4C3COC3)nc2)cc1)[C@H](CN(Cc1c(F)cc(-c2ccn(C(F)F)n2)cc1F)NC(=O)[C@@H](NC(=O)OC)C(C)(C)C(F)(F)F)OC(=O)CC(C)(C)c1c(CC(=O)N2CC[C@H](C(=O)O)C2)cc(C)cc1OP(=O)(O)O)C(C)(C)C(F)(F)F [Example 76]
criterion met
